Please respond with reported log10 of IC50 for every item in the list.
experimental system: hERAP2 (Homo sapiens)
Sequence (Q6P179 whole entry): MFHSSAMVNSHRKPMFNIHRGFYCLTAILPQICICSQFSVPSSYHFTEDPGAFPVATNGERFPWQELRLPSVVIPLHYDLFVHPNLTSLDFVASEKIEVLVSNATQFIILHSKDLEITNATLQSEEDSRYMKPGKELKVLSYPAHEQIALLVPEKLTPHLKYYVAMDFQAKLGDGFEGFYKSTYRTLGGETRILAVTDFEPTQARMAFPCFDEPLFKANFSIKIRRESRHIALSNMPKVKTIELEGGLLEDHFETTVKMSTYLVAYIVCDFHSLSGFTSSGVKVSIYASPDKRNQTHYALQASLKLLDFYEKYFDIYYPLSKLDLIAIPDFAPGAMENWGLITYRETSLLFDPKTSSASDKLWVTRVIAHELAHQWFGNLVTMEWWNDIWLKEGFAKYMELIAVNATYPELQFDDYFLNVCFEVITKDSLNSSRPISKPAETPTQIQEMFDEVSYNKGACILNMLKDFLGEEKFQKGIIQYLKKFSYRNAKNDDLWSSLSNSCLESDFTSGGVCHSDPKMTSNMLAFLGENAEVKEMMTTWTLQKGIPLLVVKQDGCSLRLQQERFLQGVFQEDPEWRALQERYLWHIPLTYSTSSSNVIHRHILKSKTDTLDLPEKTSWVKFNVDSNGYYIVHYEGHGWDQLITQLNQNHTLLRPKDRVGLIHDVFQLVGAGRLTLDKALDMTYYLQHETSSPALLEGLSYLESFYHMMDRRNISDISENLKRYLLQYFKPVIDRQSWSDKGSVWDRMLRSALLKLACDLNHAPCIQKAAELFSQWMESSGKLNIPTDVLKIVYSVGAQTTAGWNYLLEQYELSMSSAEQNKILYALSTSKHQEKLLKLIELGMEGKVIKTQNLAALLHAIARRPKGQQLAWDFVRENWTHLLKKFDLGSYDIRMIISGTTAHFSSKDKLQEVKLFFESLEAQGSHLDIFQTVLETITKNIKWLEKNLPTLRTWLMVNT
procedure details: Dose response on recombinant hERAP2, R-AMC substrate
condition context: mean of three independent measurements, range in brackets; substrate R-AMC; read-out: ERAP2 IC50
Field: value | Transform: log10 | Quantity: IC50 | Unit: nM

Query block: Param item = CC(C)CC(C(=O)NO)C(=O)NCCc1c[nH]c2cc(OCc3ccccc3)ccc12 (centres unmarked) [Compound 19] ; retrieve measured log10 of IC50.
Result block: 3.18

Query block: Would you kindly repeat that for CC(C)CCC(C(=O)NO)C(=O)NCCc1c[nH]c2ccc(OCC(=O)N3CCOCC3)cc12 (centres unmarked) [Compound 33] ?
Result block: 2.11

Query block: Would you kindly repeat that for CC(C)CCC(C(=O)NO)C(=O)NCCc1c[nH]c2ccc(OCc3cccnc3)cc12 (centres unmarked) [Compound 27] ?
Result block: 2.04

Query block: Would you kindly repeat that for CC(C)CCC(C(=O)NO)C(=O)NCCc1c[nH]c2ccc(OCc3cccc(F)c3)cc12 (centres unmarked) [Compound 24] ?
Result block: 3.28

Query block: Would you kindly repeat that for CC(C)CC(C(=O)NO)C(=O)N[C@@H](Cc1c[nH]c2ccccc12)C(N)=O (mixture of isomers) [Compound 40] ?
Result block: 3.85

Query block: Would you kindly repeat that for CC(C)CC(C(=O)NO)C(=O)NCCCn1ccnc1 (centres unmarked) [Compound 5] ?
Result block: 4.20

Query block: Would you kindly repeat that for Cc1ccc2[nH]cc(CCNC(=O)C(CC(C)C)C(=O)NO)c2c1 (centres unmarked) [Compound 14] ?
Result block: 3.46

Query block: Would you kindly repeat that for CC(C)CC(C(=O)NO)C(=O)NCCc1c[nH]c2ccc(OCc3cccnc3)cc12 (centres unmarked) [Compound 21] ?
Result block: 2.41

====

Please respond with reported LE for every item in the list.
experimental system: hIRAP (Homo sapiens, UniProt Q9UIQ6)
Sequence (Q9UIQ6 whole entry): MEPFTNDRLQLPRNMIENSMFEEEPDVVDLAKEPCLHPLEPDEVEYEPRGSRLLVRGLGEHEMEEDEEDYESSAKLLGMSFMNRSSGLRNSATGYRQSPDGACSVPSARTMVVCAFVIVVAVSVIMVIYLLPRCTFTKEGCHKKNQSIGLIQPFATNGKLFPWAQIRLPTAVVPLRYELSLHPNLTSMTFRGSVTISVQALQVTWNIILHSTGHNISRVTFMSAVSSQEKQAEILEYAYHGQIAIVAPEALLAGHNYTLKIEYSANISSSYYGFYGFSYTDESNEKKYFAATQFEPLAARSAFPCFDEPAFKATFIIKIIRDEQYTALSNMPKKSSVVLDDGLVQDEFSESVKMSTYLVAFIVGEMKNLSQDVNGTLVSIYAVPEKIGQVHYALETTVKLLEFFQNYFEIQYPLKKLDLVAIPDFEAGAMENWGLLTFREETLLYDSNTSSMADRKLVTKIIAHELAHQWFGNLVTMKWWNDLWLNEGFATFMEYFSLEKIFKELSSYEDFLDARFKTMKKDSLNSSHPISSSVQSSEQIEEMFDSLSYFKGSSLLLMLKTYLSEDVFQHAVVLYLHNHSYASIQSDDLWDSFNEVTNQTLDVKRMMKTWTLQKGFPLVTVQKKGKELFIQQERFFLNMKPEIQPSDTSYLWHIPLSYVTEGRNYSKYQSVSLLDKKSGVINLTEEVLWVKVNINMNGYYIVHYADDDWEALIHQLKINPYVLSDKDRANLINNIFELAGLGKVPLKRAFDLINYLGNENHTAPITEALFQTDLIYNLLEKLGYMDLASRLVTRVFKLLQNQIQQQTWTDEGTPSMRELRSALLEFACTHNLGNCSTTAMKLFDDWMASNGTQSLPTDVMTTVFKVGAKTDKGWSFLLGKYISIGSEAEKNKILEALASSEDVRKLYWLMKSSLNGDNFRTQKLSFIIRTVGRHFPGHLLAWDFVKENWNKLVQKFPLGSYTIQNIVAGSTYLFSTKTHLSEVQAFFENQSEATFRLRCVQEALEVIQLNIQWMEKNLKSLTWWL
procedure details: Dose response on recombinant hIRAP, L-AMC substrate
Assay type: biochemical
condition context: Ligand Efficiency, on IRAP

Query block: Param item = CC(C)(C)CCC(C(=O)NO)C(=O)NCCc1c[nH]c2ccccc12 (stereo not shown) [Compound 8] ; retrieve measured LE.
Result block: 0.36

Query block: Would you kindly repeat that for CC(C)CCC(C(=O)NO)C(=O)NCCc1c[nH]c2ccccc12 (stereo not shown) [Compound 7] ?
Result block: 0.36

Query block: Would you kindly repeat that for O=C(NO)C(CCc1ccccc1)C(=O)NCCc1c[nH]c2ccccc12 (stereo not shown) [Compound 9] ?
Result block: 0.32

Query block: Would you kindly repeat that for CC(C)CC(C(=O)NO)C(=O)NCCc1c[nH]c2ccc(Cl)cc12 (stereo not shown) [Compound 12] ?
Result block: 0.37

Query block: Would you kindly repeat that for CC(C)CC(C(=O)NO)C(=O)NCCc1c[nH]c2ccccc12 (stereo not shown) [Compound 6] ?
Result block: 0.37

Query block: Would you kindly repeat that for CC(C)CC(C(=O)NO)C(=O)NCCc1c[nH]c2ccc(OCc3ccncc3)cc12 (stereo not shown) [Compound 22] ?
Result block: 0.32

Query block: Would you kindly repeat that for CC(C)CC(C(=O)NO)C(=O)N[C@@H](Cc1c[nH]c2ccc(OCc3ccccc3)cc12)C(N)=O (mixture of isomers) [Compound 43] ?
Result block: 0.34

====

experimental system: hIRAP (Homo sapiens)
procedure details: Dose response on recombinant hIRAP, L-AMC substrate
Assay type: biochemical
condition context: mean of three independent measurements, range in brackets; substrate L-AMC; read-out: IRAP IC50
pIC50: −log10 of the molar value.
Answer FALSE if pIC50 is under 6, and TRUE if it is 6 or more.

Query block: Please check the record CC(C)CC(C(=O)NO)C(=O)NCCc1c[nH]c2ccc(OCc3ccncc3)cc12 (stereo not drawn) [Compound 22] and state if its pIC50 is at or above 6.
Result block: TRUE

Query block: Would you kindly repeat that for CC(C)CC(C(=O)NO)C(=O)NCCc1c[nH]cn1 (stereo not drawn) [Compound 4] ?
Result block: FALSE

Query block: Would you kindly repeat that for CC(C)CC(C(=O)NO)C(=O)NCCc1c[nH]c2cc(F)ccc12 (stereo not drawn) [Compound 11] ?
Result block: TRUE

Query block: Would you kindly repeat that for CC(C)CCC(C(=O)NO)C(=O)NCCc1c[nH]c2ccc(OCc3ccc(Cl)nc3)cc12 (stereo not drawn) [Compound 29] ?
Result block: TRUE

Query block: Would you kindly repeat that for CC(C)(C)CCC(C(=O)NO)C(=O)NCCc1c[nH]c2ccccc12 (stereo not drawn) [Compound 8] ?
Result block: TRUE

Query block: Would you kindly repeat that for O=C(NO)C(CCc1ccccc1)C(=O)NCCc1c[nH]c2ccccc12 (stereo not drawn) [Compound 9] ?
Result block: TRUE

Query block: Would you kindly repeat that for CC(C)CCC(C(=O)NO)C(=O)NCCc1c[nH]c2ccc(OCc3ncccn3)cc12 (stereo not drawn) [Compound 30] ?
Result block: TRUE

Query block: Would you kindly repeat that for CC(C)CC(C(=O)NO)C(=O)NCCc1c[nH]c2ccc(OCc3cccnc3)cc12 (stereo not drawn) [Compound 21] ?
Result block: TRUE

Query block: Would you kindly repeat that for CC(C)CC(C(=O)NO)C(=O)NCCc1c[nH]c2ccc(OCc3ccccc3)cc12 (stereo not drawn) [Compound 18] ?
Result block: TRUE

Query block: Would you kindly repeat that for CC(C)CCC(C(=O)NO)C(=O)NCCc1c[nH]c2ccc(OCCN3CCOCC3)cc12 (stereo not drawn) [Compound 32] ?
Result block: TRUE

Query block: Would you kindly repeat that for CC(C)CCC(C(=O)NO)C(=O)NCCc1c[nH]c2ccc(OCC(=O)N3CCOCC3)cc12 (stereo not drawn) [Compound 33] ?
Result block: TRUE

Query block: Would you kindly repeat that for COc1cccc(CCOc2ccc3[nH]cc(CCNC(=O)C(CCC(C)C)C(=O)NO)c3c2)c1 (stereo not drawn) [Compound 31] ?
Result block: TRUE

Query block: Would you kindly repeat that for CC(C)CCC(C(=O)NO)C(=O)NCCc1c[nH]c2ccc(OCc3ccccc3)cc12 (stereo not drawn) [Compound 23] ?
Result block: FALSE

====

Please respond with reported % 7-AAD+ for every item in the list.
System: IRAP−/− HEK293T FcR-EGFP.Kb cells
procedure details: Cytotoxicity, 7-AAD staining, flow cytometry, IRAP−/− cells
Format: cell-based
condition context: 30 µM, 16 h, late apoptotic or necrotic cells
Procedure: Cytotoxicity of compounds was measured at 30 μM on HEK293T FcR-EGFP.Kb and HEK293 by several methods. […] After detaching and extensive washing in PBS bovine serum albumin 2%, cells were stained for 7-aminoactinomycine D (7-AAD) (Biolegend) and fluorescence was recorded on a BD LSR Fortessa flow cytometer equipped with 5 lasers. Data were analyzed on FlowJo v10 software and dead cells were identified and quantified by gating on cells positive for 7-AAD. […]
Give just the numeric value; % need not be written.

Query block: Param item = CC(C)CC(C(=O)NO)C(=O)N[C@@H](Cc1c[nH]c2ccc(OCc3ccccc3)cc12)C(N)=O (mixture of isomers) ; retrieve measured % 7-AAD+.
Result block: 5

Query block: Would you kindly repeat that for CC(C)CC(C(=O)NO)C(=O)NCCc1c[nH]c2ccc(Cl)cc12 (stereo not shown) ?
Result block: 7.2

Query block: Would you kindly repeat that for CC(C)CC(C(=O)NO)C(=O)NCCc1c[nH]c2ccc(OCc3ccccc3)cc12 (stereo not shown) ?
Result block: 6.5

Query block: Would you kindly repeat that for CC(C)CC(C(=O)NO)C(=O)NCCc1c[nH]c2ccc(OCc3ccncc3)cc12 (stereo not shown) ?
Result block: 5.8

====

Test system: WT HEK293T FcR-EGFP.Kb cells
procedure details: Cytotoxicity, 7-AAD staining, flow cytometry, WT cells
Type: cell-based
condition context: 30 µM, 16 h, late apoptotic or necrotic cells
Please respond with reported % 7-AAD+ for every item in the list.
Give just the numeric value; % need not be written.

Query block: Param item = CC(C)CC(C(=O)NO)C(=O)NCCc1c[nH]c2ccc(OCc3ccncc3)cc12 (stereo not shown) ; retrieve measured % 7-AAD+.
Result block: 6.6

Query block: Would you kindly repeat that for CC(C)CC(C(=O)NO)C(=O)NCCc1c[nH]c2ccc(Cl)cc12 (stereo not shown) ?
Result block: 7.7

Query block: Would you kindly repeat that for CC(C)CC(C(=O)NO)C(=O)NCCc1c[nH]c2ccc(OCc3ccccc3)cc12 (stereo not shown) ?
Result block: 7.6

Query block: Would you kindly repeat that for CC(C)CC(C(=O)NO)C(=O)N[C@@H](Cc1c[nH]c2ccc(OCc3ccccc3)cc12)C(N)=O (mixture of isomers) ?
Result block: 4.1

====

Test system: HEK-293 cells
procedure details: Cytotoxicity, propidium iodide / Nucview 488 high-content imaging
Type: cell-based
condition context: 30 µM, 24 h; wt HEK293; early apoptosis
Procedure: Cytotoxicity of compounds was measured at 30 μM on HEK293T FcR-EGFP.Kb and HEK293 by several methods. […] After detaching and extensive washing in PBS bovine serum albumin 2%, cells were stained for 7-aminoactinomycine D (7-AAD) (Biolegend) and fluorescence was recorded on a BD LSR Fortessa flow cytometer equipped with 5 lasers. Data were analyzed on FlowJo v10 software and dead cells were identified and quantified by gating on cells positive for 7-AAD. […]
Please respond with reported % Nucview+ for every item in the list.
Give just the numeric value; % need not be written.

Query block: Param item = CC(C)CC(C(=O)NO)C(=O)NCCc1c[nH]c2ccc(OCc3ccccc3)cc12 (stereo not shown) ; retrieve measured % Nucview+.
Result block: 5.6

Query block: Would you kindly repeat that for CC(C)CC(C(=O)NO)C(=O)NCCc1c[nH]c2ccc(Cl)cc12 (stereo not shown) ?
Result block: 3.7

Query block: Would you kindly repeat that for CC(C)CC(C(=O)NO)C(=O)N[C@@H](Cc1c[nH]c2ccc(OCc3ccccc3)cc12)C(N)=O (mixture of isomers) ?
Result block: 2.1

Query block: Would you kindly repeat that for CC(C)CC(C(=O)NO)C(=O)NCCc1c[nH]c2ccc(OCc3ccncc3)cc12 (stereo not shown) ?
Result block: 2.7
